- System: TK-10 renal
- assayText: NCI tumour cell line growth inhibition, 48 h
measureName: TGI

Hello, please tell me recorded TGI for this one: CC(C)OCC(O)COc1ccc2ccc(=O)oc2c1 (stereo not given)
> 100 µM

Hello, please tell me recorded TGI for this one: CCOC(=O)C(Cc1ccccc1)NC(=O)c1ccc(N=NN(C)C)cc1 (stereo not given)
> 100 µM

Hello, please tell me recorded TGI for this one: CCC(C)OC(=O)C1C2CCC(O2)C1C(=O)O (stereo not given)
> 100 µM

Hello, please tell me recorded TGI for this one: CC(=O)OCC1OC(n2c(C)c(N=Nc3ccccc3)c(C)c(C#N)c2=S)C(OC(C)=O)C(OC(C)=O)C1OC(C)=O (stereo not given)
81.8 µM

Hello, please tell me recorded TGI for this one: CCOC(=O)C1CCn2c(nc3c2c(=O)n(C)c(=O)n3C)S1 (stereo not given)
> 100 µM

Hello, please tell me recorded TGI for this one: N#CC1=C(S)N(C2OC(CO)C(O)C(O)C2O)C(c2ccccc2)=CC1c1ccccc1 (stereo not given)
> 100 µM

Hello, please tell me recorded TGI for this one: CN(C)CCn1c(=O)c2ccc3c4c(nn3CCN(C)C)c3cc(N)ccc3n(c1=O)c24
3.8 µM

Hello, please tell me recorded TGI for this one: Cc1cn(C2CC(O)C(Cn3cc(Cn4ncc(=O)[nH]c4=O)nn3)O2)c(=O)[nH]c1=O (stereo not given)
> 100 µM

Hello, please tell me recorded TGI for this one: CN(C)CCCN(c1nc(C(Cl)(Cl)Cl)ns1)c1nc(C(Cl)(Cl)Cl)ns1
3.58 µM

Hello, please tell me recorded TGI for this one: C#CCOCn1cnc2c(=S)nc[nH]c21
> 100 µM

Hello, please tell me recorded TGI for this one: Cc1cc(O)c(C(C)C)cc1CN1CCCCC1
> 100 µM

Hello, please tell me recorded TGI for this one: COc1ccc(N=C2C(=O)C3=C(OC(C)(C)CC3)c3ccccc32)cc1
7.93 µM

Hello, please tell me recorded TGI for this one: Cc1cc2c(cc1Cl)SC(N/N=C(\N)c1ccc(Cl)cc1)=NS2(=O)=O
> 100 µM

Hello, please tell me recorded TGI for this one: NC1CC(=O)c2c(Cl)sc(Cl)c21 (stereo not given)
6.26 µM

Hello, please tell me recorded TGI for this one: Cc1c2c(nn1C(=O)c1nn(-c3ccc(Cl)cc3)cc1O)-c1ccccc1CC2
> 100 µM

Hello, please tell me recorded TGI for this one: O=C(NC1CCC(=O)N1C(=O)OCc1ccccc1)OCc1ccccc1 (stereo not given)
> 100 µM

Hello, please tell me recorded TGI for this one: CCOC(=O)c1ccc(N(CCOS(C)(=O)=O)CCOS(C)(=O)=O)cc1C
> 100 µM

Hello, please tell me recorded TGI for this one: COC1O[C@@H]2CCN3C(=O)[C@@H](OC(=O)c4ccc([N+](=O)[O-])cc4)[C@H]1C23 (stereo not given in full)
> 100 µM

Hello, please tell me recorded TGI for this one: c1cc(OCCN2CCCCCC2)ccc1CNc1ccc2nc(CCC3CCCCC3)[nH]c2c1
10.9 µM

Hello, please tell me recorded TGI for this one: C=CCNC(=S)N1c2ccccc2NC(=O)CC1C (stereo not given)
> 100 µM

Hello, please tell me recorded TGI for this one: O=C(Nc1nccs1)c1cc2c(cc1Cl)Sc1nccn1S2(=O)=O
34.4 µM

Hello, please tell me recorded TGI for this one: COC(=O)C(=O)c1c2ccccc2n2ccc3c4ccccc4[nH]c3c12
> 10 µM

Hello, please tell me recorded TGI for this one: COc1ccc(-c2c(C#N)c(-c3ccc(C)cc3)n(NS(=O)(=O)c3ccccc3)c(=O)c2C#N)cc1
> 100 µM

Hello, please tell me recorded TGI for this one: O=[N+]([O-])c1ccc2c(c1)c(N=NC(=S)NC1CCCCC1)c(O)n2CN1CCOCC1
19.4 µM

Hello, please tell me recorded TGI for this one: OCC1OC(Oc2cc(O)cc(/C=C\c3ccc(O)cc3)c2)C(O)C(O)C1O (stereo not given)
> 100 µM
